// provenance: patent US20130065792A1

# Target Entity: SGLT5 (Homo sapiens)
# Construct: expressed in transfected cells; host or cells: T-Rex 293 cells (Invitrogen), stably transfected with pT-Rex-Dest30-hSGLT5; expression induced with tetracycline; deposited clone DSM ACC3096
# Sequence (A0PJK1 whole entry): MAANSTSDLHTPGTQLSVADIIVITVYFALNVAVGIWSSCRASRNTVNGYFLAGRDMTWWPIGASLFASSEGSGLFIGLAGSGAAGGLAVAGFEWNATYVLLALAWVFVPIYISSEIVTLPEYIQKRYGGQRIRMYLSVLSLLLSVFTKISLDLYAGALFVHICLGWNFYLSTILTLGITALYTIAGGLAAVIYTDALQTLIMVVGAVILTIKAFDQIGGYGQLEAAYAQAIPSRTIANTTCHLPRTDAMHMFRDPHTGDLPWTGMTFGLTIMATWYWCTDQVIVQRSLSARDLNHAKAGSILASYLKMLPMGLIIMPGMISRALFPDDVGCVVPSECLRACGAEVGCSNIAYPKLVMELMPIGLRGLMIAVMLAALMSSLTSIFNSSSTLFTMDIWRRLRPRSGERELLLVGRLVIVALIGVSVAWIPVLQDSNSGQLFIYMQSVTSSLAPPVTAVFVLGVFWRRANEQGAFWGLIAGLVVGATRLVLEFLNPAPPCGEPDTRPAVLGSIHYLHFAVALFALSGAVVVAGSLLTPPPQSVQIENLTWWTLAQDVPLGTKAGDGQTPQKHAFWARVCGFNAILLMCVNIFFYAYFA
# Protocol Summary: [14C]-monosaccharide uptake inhibition assay, [14C]-mannose as substrate, stable cell lines overexpressing human SGLT-5
# Format: cell-based
# Reported Conditions: [14C]-mannose as substrate; 60 minutes at 37° C.; at least three independent experiments; read-out: Mean IC50 for inhibition of hSGLT-5
pIC50: −log10 of the molar value.
Measured pIC50 of individual entries

[
  {
    "Compound": "OC[C@H]1O[C@@H](c2ccc(F)c(Cc3cc4ccccc4s3)c2)[C@H](O)[C@@H](O)[C@@H]1O",
    "Target Entity": "SGLT5 (Homo sapiens)",
    "pIC50": 6.13
  },
  {
    "Compound": "COc1ccc(Cc2ccccc2O[C@@H]2O[C@H](CO)[C@@H](O)[C@H](O)[C@H]2O)cc1",
    "Target Entity": "SGLT5 (Homo sapiens)",
    "pIC50": 5.96
  },
  {
    "Compound": "OC[C@H]1O[C@@H](c2ccc(Cl)c(Cc3ccc(O[C@H]4CCOC4)cc3)c2)[C@H](O)[C@@H](O)[C@@H]1O",
    "Target Entity": "SGLT5 (Homo sapiens)",
    "pIC50": 5.96
  },
  {
    "Compound": "Cc1cc(O)c(C(=O)CCc2ccc3occc3c2)c(O[C@@H]2O[C@H](CO)[C@@H](O)[C@H](O)[C@H]2O)c1 [Compound T1095A]",
    "Target Entity": "SGLT5 (Homo sapiens)",
    "pIC50": 5.96
  }
]
